Record form. Attribute: TGI. Fill in for each entry.
- Tested on: HL-60(TB) leukemia
- assayText: NCI tumour cell line growth inhibition, 48 h
# output: bare number, implied unit µM

Request: Param item = CC(NC(C#N)CC12CC3CC(CC(C3)C1)C2)c1ccccc1 (stereo not given) ; retrieve measured TGI.
Result: 42.3

Request: Param item = COc1ccc2c(c1)C1(C(=O)N2)C(C#N)=C(c2ccccc2)Nc2c1c(-c1ccccc1)nn2-c1ccccc1 (stereo not given) ; retrieve measured TGI.
Result: 15.4

Request: Param item = CCOC(=O)CSc1[nH]c(NC(=S)Nc2ccccc2)c(C(N)=O)c1C(N)=O ; retrieve measured TGI.
Result: 4.78

Request: Param item = C=C1C(=O)OC2CC(C)C3C=CC(=O)C3CC12 (stereo not given) ; retrieve measured TGI.
Result: 4.95
